# TGT: T1, Human CD228 protein (human, UniProt P08582 20-708, limits assumed)
# T1 construct: Recombinant protein made in CHO cells, purified over a Ni column; The printed entry begins with the leader (MRGPSG...) and ends with ten His; also called hCD228; CD228-His protein
# T1 sequence: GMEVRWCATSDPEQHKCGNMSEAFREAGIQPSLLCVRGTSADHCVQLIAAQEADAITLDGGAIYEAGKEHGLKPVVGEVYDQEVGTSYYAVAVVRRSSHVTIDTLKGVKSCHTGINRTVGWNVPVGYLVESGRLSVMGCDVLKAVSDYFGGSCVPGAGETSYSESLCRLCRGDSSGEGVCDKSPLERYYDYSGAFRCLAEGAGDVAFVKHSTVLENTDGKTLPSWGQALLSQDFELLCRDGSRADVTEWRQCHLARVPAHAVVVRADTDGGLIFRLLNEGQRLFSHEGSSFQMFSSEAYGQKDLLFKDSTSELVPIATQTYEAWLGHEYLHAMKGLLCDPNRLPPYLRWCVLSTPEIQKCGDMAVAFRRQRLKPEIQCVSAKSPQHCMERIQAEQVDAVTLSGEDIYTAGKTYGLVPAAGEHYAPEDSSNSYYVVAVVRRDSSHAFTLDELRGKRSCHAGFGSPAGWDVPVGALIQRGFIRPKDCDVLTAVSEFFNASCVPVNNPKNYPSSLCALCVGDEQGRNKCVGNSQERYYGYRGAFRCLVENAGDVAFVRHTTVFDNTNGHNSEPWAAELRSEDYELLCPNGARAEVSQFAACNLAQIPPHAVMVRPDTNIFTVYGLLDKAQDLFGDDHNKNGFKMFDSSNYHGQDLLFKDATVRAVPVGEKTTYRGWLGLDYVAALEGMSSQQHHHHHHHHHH
# MEASUREMENT_DESCRIPTION: Octet competition on His-chip CD228; competitor: hl49
Would you kindly list competition (1-response value/blank value) for each of these binders?
Numeric answer only, unit % assumed.

Task: Please report competition (1-response value/blank value) for the following binder: CA518 (antibody, human IgG1, kappa, V domains shown, Intact IgG1) VH: EVQLVESGGGVVQPGRSLRLSCAASGFTFSSYAMHWVRQAPGKGLEWVAVISYDGSNKYHADSVKGRFTISRDNSKNTLFLQMNSLRAEDTAVYYCVRDVYHYGSRSPYYYGMDVWGQGTTVTVSS VL: DIQMTQSPSSVSASVGDRVTITCRASQGISSWLAWYQQKPGKAPKLLIYAASSLQSGVPSRFSGSGSGTDFTLTISSLQPEDVATYYCQKYNSAPFTFGPGTKVDIKR
Output: 19

Task: Please report competition (1-response value/blank value) for the following binder: reference antibody hL49 (antibody, human IgG1, kappa, V domains shown, also called H149; hL49 analogy) VH: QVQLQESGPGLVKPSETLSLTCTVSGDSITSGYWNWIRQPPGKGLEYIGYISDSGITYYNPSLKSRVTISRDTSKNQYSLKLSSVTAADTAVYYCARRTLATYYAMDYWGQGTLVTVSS VL: DFVMTQSPLSLPVTLGQPASISCRASQSLVHSDGNTYLHWYQQRPGQSPRLLIYRVSNRFSGVPDRFSGSGSGTDFTLKISRVEAEDVGVYYCSQSTHVPPTFGQGTKLEIKR
Output: 95

Task: Please report competition (1-response value/blank value) for the following binder: BA352 (antibody, human IgG1, kappa, V domains shown, Intact IgG1) VH: EVQLVESGGGVVQPGRSLRLSCAASGFTFSSYAMHWVRQAPGKGLEWVAVISYDGSNKYYADSVKGRFTISRDNSKNTLYLQMNSLRAEDTAVYYCARGPYLAAAGTALTFDIWGQGTMVTVSS VL: DIQMTQSPSAMSASVGDRVTITCRASQGINNYLAWFQQKPGKVPKRLIYAASSLQSGVPSRFSGSGSGTEFTLTISSLQPEDFATYYCLQHNSYPFTFGPGTKVDIKR
Output: 100

Task: Please report competition (1-response value/blank value) for the following binder: CA185 (antibody, human IgG1, kappa, V domains shown, Intact IgG1) VH: EVQLVESGGGVVQPGRSLRLSCAASGFTFSSYAMHWVRQAPGKGLEWVAVISYDGSNKYYADSVKGRFTISRDNSKNTLYLQMNSLRAEDTAVYYCAREVPYYYGSGPFDYWGQGTLVTVSS VL: EIVLTQSPGTLSLSPGERATLSCRASQSVSSSSLAWYQQKPGQAPRHLIDGASSRASGIPDRFSGSGSGTDFTLTISRLEPEDFAVYYCQQYGSSYTFGQGTKVDIKR
Output: -3

Task: Please report competition (1-response value/blank value) for the following binder: CA13 (antibody, human IgG1, kappa, V domains shown, Intact IgG1 from fully human antibody-transgenic mice) VH: EVQLVESGGGVVQPGRSLRLSCAASGFTFSSYAMHWVRQAPGKGLEWVAVISYDGSNKYYADSVKGRFTISRDNSKNTLFLQMNSLRAEDTAVYYCARDVYHYGSRSPYYYGMDVWGQGTTVTVSS VL: DIVMTQSPSSLSASVGDRVTITCRASQGISNYLAWFQQKPGKVPKLLIYAASTLQSGVPSRFSGSGSGTDFTLTISSLQPEDVATYYCQKYNSAPFTFGPGTKVDIKR
Output: -2

Task: Please report competition (1-response value/blank value) for the following binder: CA67 (antibody, human IgG1, kappa, V domains shown, Intact IgG1) VH: EVQLVESGGGVVQPGRSLRLSCAASGFTFSSYAMHWVRQAPGKGLEWVAVISYDGSNKYYADSVKGRFTISRDNSKNTLYLQMNSLRAEDTAVYYCARDVYHYGSRSPYYYGMDVWGQGTTVTVSS VL: DIQMTQSPSSLSASVGDRVTITCRASQAISNYLAWYQQKPGKVPKLLIYAASTLHPGVPSRFSGSGSGTDFTLTISSLQPEDVATYYCQKYNSAPFTFGPGTKVDIKR
Output: 5
